Entries and their measured melting point follow.

| Structure smiles | melting point |
| --- | --- |
| Cn1nc2c(-c3ccc(Cl)cc3Cl)cccc2c1-c1cnco1 | 167.5 to 169.5 °C |
| Cn1nc2c(-c3ccc(Cl)cc3Cl)cccc2c1Cc1nnn(CS(C)(=O)=O)n1 | 156.6 to 157.8 °C |
| Cn1nc2c(-c3ccc(Cl)cc3Cl)cccc2c1Cc1nnn[nH]1 | 270.1 to 275.5 °C |

Measured melting point of "Cn1nc2c(-c3ccc(Cl)cc3Cl)cccc2c1C(=O)c1ncn[nH]1" : 283.9 to 284.9 °C

Measured melting point of "Cn1nc2c(-c3ccc(Cl)cc3Cl)cccc2c1CN1CCOC1=O" : 165.9 to 167.5 °C

Measured melting point of "Cn1nc2c(-c3ccc(Cl)cc3Cl)cccc2c1C1=NCCO1" : 162.2 to 167.1 °C

Measured melting point of "Cn1nc2c(-c3ccc(Cl)cc3Cl)cccc2c1Cc1nnn(CCO)n1" : 147.7 to 151.1 °C

----------
- System under test: GABAA α1β2γ2 (Homo sapiens, UniProt P14867+P18507+P47870)
- Construct: expressed in transfected cells; host or cells: HEK293
- Sequence (P14867 28-456, one chain of several): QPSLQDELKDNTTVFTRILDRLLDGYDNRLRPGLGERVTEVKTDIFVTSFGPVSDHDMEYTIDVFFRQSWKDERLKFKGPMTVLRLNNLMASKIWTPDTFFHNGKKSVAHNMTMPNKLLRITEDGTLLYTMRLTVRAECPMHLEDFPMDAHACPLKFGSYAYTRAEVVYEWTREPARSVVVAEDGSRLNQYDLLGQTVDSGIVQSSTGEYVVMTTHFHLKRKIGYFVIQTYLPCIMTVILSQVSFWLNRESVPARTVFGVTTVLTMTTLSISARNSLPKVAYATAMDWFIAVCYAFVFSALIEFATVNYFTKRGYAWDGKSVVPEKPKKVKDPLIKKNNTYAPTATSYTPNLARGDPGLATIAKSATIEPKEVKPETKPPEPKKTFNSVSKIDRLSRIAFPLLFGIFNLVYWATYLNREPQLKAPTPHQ
- Sequence (P47870 25-512 limits assumed, one chain of several): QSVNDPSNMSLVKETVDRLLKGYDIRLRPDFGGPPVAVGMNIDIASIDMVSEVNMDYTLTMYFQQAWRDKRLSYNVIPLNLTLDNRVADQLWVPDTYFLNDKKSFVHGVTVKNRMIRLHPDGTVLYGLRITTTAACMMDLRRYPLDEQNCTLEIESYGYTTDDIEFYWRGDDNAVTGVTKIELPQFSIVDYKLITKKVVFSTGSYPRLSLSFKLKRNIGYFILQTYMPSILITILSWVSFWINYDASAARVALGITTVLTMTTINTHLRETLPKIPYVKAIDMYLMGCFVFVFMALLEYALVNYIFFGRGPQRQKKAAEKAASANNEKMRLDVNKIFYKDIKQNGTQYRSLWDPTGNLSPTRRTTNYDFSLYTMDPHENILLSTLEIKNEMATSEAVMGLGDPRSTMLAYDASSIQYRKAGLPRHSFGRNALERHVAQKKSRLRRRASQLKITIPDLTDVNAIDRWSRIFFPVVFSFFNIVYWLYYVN
- Measurement notes: 35S-TBPS binding assay, HEK293 membranes with GABAA α1β2γ2 construct
- Condition notes: 35S-TBPS 5 nM, GABA 1 μM, 2 hours at room temperature, read-out: α1β2γ2 (35S-TBPS binding, pIC50) (converted)
Entries and their measured IC50 follow.
Unit µM implied. Number only.

| Structure smiles | IC50 / µM |
| --- | --- |
| Cn1nnc(Cc2c3cccc(-c4ccc(Cl)cc4Cl)c3nn2C)n1 | 1.48 |

Alright, here's another compound for you.
Measured IC50 of "Cn1nc2c(-c3ccc(Cl)cc3Cl)cccc2c1C(=O)c1ncc[nH]1" : 4.47

----------
- System under test: GABAA α2β3γ2 (Homo sapiens, UniProt P18507+P28472+P47869)
- Construct: expressed in transfected cells; host or cells: HEK293
- Sequence (P47869 29-451): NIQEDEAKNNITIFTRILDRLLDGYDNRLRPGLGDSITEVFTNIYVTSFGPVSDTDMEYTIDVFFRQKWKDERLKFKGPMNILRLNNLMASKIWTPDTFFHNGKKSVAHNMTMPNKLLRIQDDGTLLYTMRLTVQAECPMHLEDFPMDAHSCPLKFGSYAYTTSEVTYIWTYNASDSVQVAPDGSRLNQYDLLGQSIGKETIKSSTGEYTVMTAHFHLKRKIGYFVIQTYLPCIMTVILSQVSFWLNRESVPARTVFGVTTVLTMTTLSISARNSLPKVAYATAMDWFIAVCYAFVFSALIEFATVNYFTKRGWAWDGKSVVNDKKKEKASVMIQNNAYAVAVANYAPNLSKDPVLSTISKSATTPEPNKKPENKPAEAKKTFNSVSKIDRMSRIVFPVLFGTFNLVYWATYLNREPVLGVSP
- Sequence (P28472 26-473): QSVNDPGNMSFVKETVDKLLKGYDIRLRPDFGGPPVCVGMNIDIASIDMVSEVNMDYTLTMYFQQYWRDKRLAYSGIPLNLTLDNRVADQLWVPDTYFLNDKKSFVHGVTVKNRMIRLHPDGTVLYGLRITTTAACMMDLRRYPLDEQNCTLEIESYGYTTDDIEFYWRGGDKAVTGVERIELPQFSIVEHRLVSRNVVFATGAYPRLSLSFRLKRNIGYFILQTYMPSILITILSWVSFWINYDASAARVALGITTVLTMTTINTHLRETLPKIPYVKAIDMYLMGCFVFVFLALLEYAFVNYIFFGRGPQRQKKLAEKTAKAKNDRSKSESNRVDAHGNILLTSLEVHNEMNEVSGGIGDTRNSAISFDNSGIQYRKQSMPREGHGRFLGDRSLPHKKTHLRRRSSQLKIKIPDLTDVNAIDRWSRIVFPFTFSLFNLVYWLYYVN
- Sequence (P18507 40-475): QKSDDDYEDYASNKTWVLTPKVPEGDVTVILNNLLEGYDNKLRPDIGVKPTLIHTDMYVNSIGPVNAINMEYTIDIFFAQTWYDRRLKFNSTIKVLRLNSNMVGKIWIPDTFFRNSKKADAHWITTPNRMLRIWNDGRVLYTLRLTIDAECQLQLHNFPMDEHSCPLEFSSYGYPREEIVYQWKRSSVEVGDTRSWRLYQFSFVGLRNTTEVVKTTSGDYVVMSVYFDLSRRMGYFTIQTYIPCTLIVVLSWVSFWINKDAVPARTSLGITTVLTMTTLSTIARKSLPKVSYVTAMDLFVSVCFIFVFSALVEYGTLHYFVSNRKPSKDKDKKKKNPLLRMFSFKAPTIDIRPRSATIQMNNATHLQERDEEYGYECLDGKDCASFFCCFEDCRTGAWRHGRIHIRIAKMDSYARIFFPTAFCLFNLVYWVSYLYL
- Measurement notes: 35S-TBPS binding assay, HEK293 membranes with GABAA α2β3γ2 construct
- Condition notes: 35S-TBPS 5 nM, GABA 1 μM, 2 hours at room temperature, read-out: α2β3γ2 (35S-TBPS binding, pIC50) (converted)
Measurement name: IC50 (nM)

Example results:
| Structure smiles | IC50 / nM |
| --- | --- |
| Cc1noc(-c2c3cccc(-c4ccc(Cl)cc4Cl)c3nn2C)n1 | 676 |
| Cn1nc2c(-c3ccc(Cl)cc3Cl)cccc2c1C(=O)c1nccn1CCO | 214 |
| Cn1nc2c(-c3ccc(Cl)cc3Cl)cccc2c1-c1nnn[nH]1 | 692 |

[1] Cn1nc2c(-c3ccc(Cl)cc3Cl)cccc2c1CCc1nnn[nH]1
[2] Cn1nc2c(-c3ccc(Cl)cc3Cl)cccc2c1Cn1ncnn1
## Input Quick check, higher IC50 between 1 and 2 ? Return value: the label identifying the chosen record.
## Output 1
(1: 603 nM, 2: 372 nM)

----------
- System under test: GABAA α1β2γ2 (Homo sapiens, UniProt P14867+P18507+P47870)
- Construct: expressed in transfected cells; host or cells: HEK293
- Measurement notes: 35S-TBPS binding assay, HEK293 membranes with GABAA α1β2γ2 construct
- Condition notes: 35S-TBPS 5 nM, GABA 1 μM, 2 hours at room temperature, read-out: α1β2γ2 (35S-TBPS binding, pIC50) (converted)
Measurement name: IC50 (µM)

| Structure smiles | System under test | Measurement name | Reading |
| --- | --- | --- | --- |
| Cn1nc2c(-c3ccc(Cl)cc3Cl)cccc2c1-n1ccnc1 | GABAA α1β2γ2 (Homo sapiens, UniProt P14867+P18507+P47870) | IC50 | 3.16 |

[P] CCOC(=O)c1nccn1Cc1c2cccc(-c3ccc(Cl)cc3Cl)c2nn1C
[Q] Cn1nc2c(-c3ccc(Cl)cc3Cl)cccc2c1Cc1nnn(CCO)n1
## Input Of P and Q , which carries the smaller reported IC50 figure? Return value: the label identifying the chosen record.
## Output Q
(Q: 1.51 µM, P: 4.79 µM)

[P] Cn1nc2c(-c3ccc(Cl)cc3Cl)cccc2c1CN1CCOC1=O
[Q] Cn1nc2c(-c3ccc(Cl)cc3Cl)cccc2c1/C=C/c1nnn[nH]1
[R] Cn1nc2c(-c3ccc(Cl)cc3Cl)cccc2c1Cn1cccn1
[S] Cn1nc2c(-c3ccc(Cl)cc3Cl)cccc2c1Cc1nc[nH]n1
## Input Give the ascending ranking of the items by reported IC50. Answer by listing the labels in the requested order.
## Output Q, R, S, P
